- Test system: HCC-2998 colon
- PROTOCOL NOTES: NCI tumour cell line growth inhibition, 48 h

>  <SMILES NOTATION>
O=[N+]([O-])/C(Cl)=C(\NCCO)C(Cl)=C(Cl)Cl

>  <TEST TARGET>
HCC-2998 colon

>  <TGI>
> 100 µM

$$$$
>  <SMILES NOTATION>
C#CCn1c(I)cc2c(c1=O)COC(=O)[C@]2(O)CC

>  <TEST TARGET>
HCC-2998 colon

>  <TGI>
> 100 µM

$$$$
>  <SMILES NOTATION>
COc1ccc(NCn2nc(CCCCCCCCc3nn(CNc4ccc(OC)cc4)c(=S)o3)oc2=S)cc1

>  <TEST TARGET>
HCC-2998 colon

>  <TGI>
> 100 µM

$$$$

----------
- Tested on: OVCAR-3 ovarian
- PROTOCOL NOTES: NCI tumour cell line growth inhibition, 48 h
Recorded TGI, one value per entry.

>  <SMILES NOTATION>
C/C(CC(O)(C(F)(F)F)C(F)(F)F)=N\O

>  <TEST TARGET>
OVCAR-3 ovarian

>  <TGI>
> 10 µM

$$$$
>  <SMILES NOTATION>
Cc1cc(C)c(S(=O)(=O)N(CCCCCN)OCCCN)c(C)c1

>  <TEST TARGET>
OVCAR-3 ovarian

>  <TGI>
36.2 µM

$$$$
>  <SMILES NOTATION>
Cc1c(C(=O)O)sc2nc[nH]c(=O)c12

>  <TEST TARGET>
OVCAR-3 ovarian

>  <TGI>
> 100 µM

$$$$

----------
- Tested on: HS 578T breast
- PROTOCOL NOTES: NCI tumour cell line growth inhibition, 48 h
This section presents compounds with their documented TGI values.

>  <COMPOUND>
N#Cc1nc(CN2C(=O)c3ccccc3C2=O)oc1N

>  <TEST TARGET>
HS 578T breast

>  <UOM>
µM

>  <VALUE MODIFIER>
>

>  <TGI>
100

$$$$
>  <COMPOUND>
COc1cccc(C2C(C#N)=C(N)Oc3cc(OCCCCCC[P+](c4ccccc4)(c4ccccc4)c4ccccc4)ccc32)c1 (centres undefined)

>  <TEST TARGET>
HS 578T breast

>  <UOM>
µM

>  <VALUE MODIFIER>
=

>  <TGI>
2.78

$$$$
>  <COMPOUND>
CCNc1ccc2c(c1)C(=O)N(OS(C)(=O)=O)C2=O

>  <TEST TARGET>
HS 578T breast

>  <UOM>
µM

>  <VALUE MODIFIER>
>

>  <TGI>
100

$$$$
>  <COMPOUND>
CCOC(=O)c1sc(NC(=O)COc2ccc(/C=C3\CCc4cc(OC)ccc4C3=O)cc2)nc1C

>  <TEST TARGET>
HS 578T breast

>  <UOM>
µM

>  <VALUE MODIFIER>
=

>  <TGI>
42.4

$$$$

----------
- Test system: HT29 colon
- PROTOCOL NOTES: NCI tumour cell line growth inhibition, 48 h
Listed compounds paired with reported TGI

>  <COMPOUND>
O=c1[nH]c(=S)[nH]c2c1CCCN2

>  <TGI>
> 100 µM

$$$$
>  <COMPOUND>
COC1CCC(OC)C(c2nc3sccn3c2/C=N/N=C(N)N)C1 (centres undefined)

>  <TGI>
> 8.71 µM

$$$$
>  <COMPOUND>
Cc1ccc(N2Cc3c(ccc4ccccc34)OP2(=S)N2CCCC2)cc1 (centres undefined)

>  <TGI>
> 100 µM

$$$$
>  <COMPOUND>
COc1ccc(C(=O)c2ccccc2)c(O)c1

>  <TGI>
> 100 µM

$$$$
>  <COMPOUND>
CCOC(=N)CC(=O)Nc1ccccc1CC

>  <TGI>
> 100 µM

$$$$
>  <COMPOUND>
CSCCC(NC(=O)C(Cc1c[nH]c2ccccc12)NC(=O)CCNC(=O)OC(C)(C)C)C(=O)NC(CC(=O)O)C(=O)NC(Cc1ccccc1)C(N)=O (centres undefined)

>  <TGI>
> 50 µM

$$$$
>  <COMPOUND>
COc1ccc(NCn2nc(CCCCCCCCc3nn(CNc4ccc(OC)cc4)c(=S)o3)oc2=S)cc1

>  <TGI>
> 100 µM

$$$$
>  <COMPOUND>
COC(=O)[C@@H]1C=CCN1S(=O)(=O)c1ccc(C)cc1

>  <TGI>
> 100 µM

$$$$
>  <COMPOUND>
COc1ccc(Cn2c(=O)c(OS(=O)(=O)C(F)(F)F)c(C)c3cc4ccccc4cc32)cc1

>  <TGI>
> 100 µM

$$$$
